For each record, write down the corresponding GI50.
test system: CCRF-CEM; test: NCI tumour cell line growth inhibition, 48 h
Activity calls are given as the source filed them. No stated cut-off is given here; in the data, active = GI50 up to about 1.1 µM and inactive = higher.

For the compound CC(=O)CC1(OC(=O)C2C(C=C(C)C)C2(C)C)C(=O)Nc2ccccc21 (centres undefined) , what GI50 is on record?
55.3 µM (inactive)

For the compound `CCOC(=O)c1c[nH]c(C(=O)OCC)c1-c1cccn1-c1ccccc1` , what GI50 is on record?
17.9 µM (inactive)

For the compound `O=C(NNC(=S)NC1CCCCC1)c1csc(NC(=S)NC2CCCCC2)n1` , what GI50 is on record?
5.73 µM (inactive)

For the compound `CCOC(=O)/C1=C(\C)N(Cc2ccccc2)C(=O)c2ccccc2C(=O)c2c(O)ccc(O)c21` , what GI50 is on record?
> 100 µM (inactive)

For the compound `CCOS(=O)(=O)c1ccc(-c2c3nc(c(-c4ccc(S(=O)(=O)OCC)cc4)c4ccc([nH]4)c(-c4ccc(S(=O)(=O)OCC)cc4)c4nc(c(-c5ccc(S(=O)(=O)OCC)cc5)c5ccc2[nH]5)C=C4)C=C3)cc1` , what GI50 is on record?
> 31.6 µM (inactive)

For the compound `Cc1ccc(NC(=O)C23CC4CC(CC(C4)C2)C3)c(C(=O)NNC(=O)c2ccc(Cl)cc2)c1` , what GI50 is on record?
21.1 µM (inactive)

For the compound `COc1cc2c3c(n(C)c(=O)c2cc1OC)-c1cc2c(cc1C3=O)OCO2` , what GI50 is on record?
0.237 µM (active)

For the compound `NC(=O)[C@H](Cc1ccc(O)cc1)NC1=C(Cl)C(=O)c2c(O)ccc(O)c2C1=O` , what GI50 is on record?
0.241 µM (active)

For the compound `c1cncc(CC2(c3cc4ccccc4[nH]3)OCCO2)c1` , what GI50 is on record?
> 100 µM (inactive)
